Molecular target: T1, full length RXR-beta (human, UniProt P28702 1-533)
T1 construct: mature; also called RXRβ; NR2B2
T1 sequence (looked up): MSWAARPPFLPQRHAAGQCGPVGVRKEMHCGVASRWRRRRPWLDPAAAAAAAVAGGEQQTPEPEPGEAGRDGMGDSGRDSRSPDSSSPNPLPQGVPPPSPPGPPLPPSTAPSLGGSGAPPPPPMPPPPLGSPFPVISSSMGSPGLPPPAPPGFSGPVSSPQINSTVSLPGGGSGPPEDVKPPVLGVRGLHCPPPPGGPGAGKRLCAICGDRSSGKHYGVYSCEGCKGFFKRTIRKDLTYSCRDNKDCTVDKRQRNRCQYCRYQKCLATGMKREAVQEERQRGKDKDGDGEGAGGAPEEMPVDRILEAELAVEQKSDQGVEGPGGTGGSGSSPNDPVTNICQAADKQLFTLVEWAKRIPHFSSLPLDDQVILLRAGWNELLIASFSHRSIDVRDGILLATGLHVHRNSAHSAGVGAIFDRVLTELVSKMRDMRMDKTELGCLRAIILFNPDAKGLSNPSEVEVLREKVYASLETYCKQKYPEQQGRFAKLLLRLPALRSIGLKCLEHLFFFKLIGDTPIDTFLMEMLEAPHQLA
Assay: plate binding assay, 800 ng/well SA488-labelled peptide on 400 ng/well adsorbed receptor
Ends that are not written are not given here. * marks the point of attachment. Biotin = O=C1N[C@H]2[C@H](CS[C@H]2CCCCC(=O)*)N1
quantity: fluorescence relative to imm3 binding (=100)

[
  {
    "binder": "Biotin-HRGFYRKRQCRSSQGQRRGPCW (cysteine pairing not given here; also: labelled with Streptavidin-Alexa 488 conjugate (SA488), Synthetic immodulin peptide derived from IGFBP-6; also called immodulin peptide-6) [imm6]",
    "result": "4.7 relative to imm3 binding (=100)"
  },
  {
    "binder": "Biotin-RKGFYKRKQCKPSRGRKRGICW (cysteine pairing not given here; also: labelled with Streptavidin-Alexa 488 conjugate (SA488), Synthetic immodulin peptide derived from IGFBP-5; also called immodulin peptide-5) [imm5]",
    "result": "4 relative to imm3 binding (=100)"
  },
  {
    "binder": "Biotin-RNGNFHPKQCHPALDGQRGKCW (cysteine pairing not given here; also: labelled with Streptavidin-Alexa 488 conjugate (SA488), Synthetic immodulin peptide derived from IGFBP-4) [imm4]",
    "result": "0.3 relative to imm3 binding (=100)"
  },
  {
    "binder": "Biotin-KKGFYKKKQCRPSKGRKRGFCW (cysteine pairing not given here; also: labelled with Streptavidin-Alexa 488 conjugate (SA488), Synthetic immodulin peptide derived from IGFBP-3; also called immodulin peptide-3) [imm3]",
    "result": "2.9 relative to imm3 binding (=100)"
  }
]
